test system: SF-268; experiment: NCI tumour cell line growth inhibition, 48 h
Activity calls are given as the source filed them. Rule as the data show it: active = GI50 up to about 1.1 µM and inactive = higher.

| compound | GI50 |
| --- | --- |
| CCCCCCCCCCCCNC1(C)CNCCCNCCNCCCNC1 | 1.34 µM (inactive) |
| Nc1cc2c3c(cccc3c1)C(=O)N(c1ccc(OCCN3CCCCC3)cc1)C2=O | 19.1 µM (inactive) |
| CSC1NC=Nc2c1sc(=S)n2-c1ccccc1 (stereo not given) | > 100 µM (inactive) |
| N=C(N)Nc1ccc(CC(N)C(=O)O)cc1 (stereo not given) | > 12.5 µM (inactive) |
| COC(=O)c1sc(C(=O)OC)c2c1CSC2 | 54.1 µM (inactive) |

* * *

Readings of GI50 for the listed molecules
system: 786-0; assay: NCI tumour cell line growth inhibition, 48 h
Calls of active or inactive are those of the source. No stated cut-off is given here; in the data, active = GI50 up to about 1.1 µM and inactive = higher.

| molecule | GI50 |
| --- | --- |
| O=C(NCc1ccccc1)c1c(O)nc2ccccc2c1O | > 100 µM (inactive) |
| Nc1nc(Cl)cc(NC23CC4CC(CC(C4)C2)C3)n1 | > 100 µM (inactive) |
| C=C1C(=O)O[C@H]2C[C@@H](C)[C@@H]3CC(=O)OC[C@@]3(C)CC12 (some centres undefined) | 21.2 µM (inactive) |
| CC(C)CCNC(=O)c1ccc(CNC(=O)/C=C/c2csc(-c3ccccc3)n2)cc1 | 32.7 µM (inactive) |
| CCOC(=O)c1ccc(NC(=O)O/N=C(/Cl)CC)cc1 | 5.85 µM (inactive) |
| COc1ccccc1/N=N/C(=N\NC(=O)c1ccc(C)cc1)c1ccc(N(CCC#N)CCC#N)cc1C | 70.3 µM (inactive) |
| Cc1nn(-c2cc(Cl)ccc2[N+](=O)[O-])c(C)c1Cl | > 100 µM (inactive) |
| CC1CNC(c2ccc3c(c2)Cc2cc(C4=NC(C)CN4)ccc2-3)=N1 (centres undefined) | 54.3 µM (inactive) |
| C#CCN(N=O)C(=O)NCCCC(NC(C)=O)C(=O)NCc1ccccc1 (centres undefined) | > 100 µM (inactive) |
| Cc1ccc(S(=O)(=O)N/N=C2\CC3C4CCC3C2C4)cc1 (centres undefined) | > 100 µM (inactive) |
| Cc1cn(C2CC(N=[N+]=[N-])C(CO)O2)c(=O)n(CCCCO)c1=O (centres undefined) | > 100 µM (inactive) |
| O=C(O)CCc1ccc2c(c1)C(=O)CC2 | > 100 µM (inactive) |
| COc1ccc(N2C(=O)/C(=C\c3cc(OC)c(OC)c(OC)c3)SC2c2ccccc2)cc1 (centres undefined) | > 100 µM (inactive) |
| CCCCCCCCCCCCCCCCOC[C@H](COC(c1ccccc1)(c1ccccc1)c1ccccc1)O[PH](=S)OC (some centres undefined) | > 100 µM (inactive) |
| COC(=O)N/N=C(\C)CC(=O)Nc1ccc(Cl)cc1 | > 100 µM (inactive) |
| N#CCC(=O)N/N=C(\CCN1CCCC1)CC(c1ccccc1)c1c(O)c2ccccc2oc1=O (centres undefined) | > 100 µM (inactive) |
| C/C(=C/CC[C@]1(CO)CC[C@]2(C)[C@H](CC[C@@H]3[C@@]4(C)CC[C@H](OC5OC(CO)C(O)C(O)C5OC5OC(CO)C(O)C(O)C5O)C(C)(C)[C@@H]4CC[C@]32C)[C@H]1O)CO (some centres undefined) | > 100 µM (inactive) |
| C[n+]1ccccc1/C1=c2\cc/c([nH]2)=C(\c2cccc[n+]2C)C2=N/C(=C(/c3cccc[n+]3C)C3C=CC(N3)/C(c3cccc[n+]3C)=C3/C=CC1=N3)C=C2 | > 100 µM (inactive) |
| CNc1ccc(OC)cc1S(=O)(=O)c1ccccc1[N+](=O)[O-] | > 100 µM (inactive) |
| OCC1OC(N2CCN(C3OC(CO)C(O)C(O)C3O)CC2)C(O)C(O)C1O (centres undefined) | > 100 µM (inactive) |
| COc1ccc(-c2cc(O)c3cc4c(cc3n2)OCO4)cc1 | 73.1 µM (inactive) |
| CC(C)(Br)C(=O)N1CCN(C(c2ccccc2)c2ccccc2)CC1 | > 100 µM (inactive) |
| Cc1ccccc1OC(C)C(=O)NN1C(=O)CC(=O)N(c2ccc(Cl)cc2)C1=S (centres undefined) | 34 µM (inactive) |
| N=C(N)Nc1ccc(CC(N)C(=O)O)cc1 (centres undefined) | > 12.5 µM (inactive) |
| Cc1c(C(C)C)cc(OCCO)cc1C(C)C | 24.4 µM (inactive) |
| O=C1OCN(c2ccccc2)C12CCN(Cc1ccccc1)CC2 | 26.8 µM (inactive) |
| COc1cc2c3c4c1OCc1c5c(cc(c1-4)CC3[N+](C)(C)CC2)OCO5 (centres undefined) | 4.33 µM (inactive) |
| CCC(C)C(NC(=O)C(CCCC[N+](=N)N)NC(=O)C(CCCC[N+](=N)N)NC(=O)c1ccc(OC)cc1)C(=O)NC(CCCC[N+](=N)N)C(=O)N1CCCC1C(=O)NC(CCCCN)C(=O)NC(CC(C)C)C(N)=O (centres undefined) | > 100 µM (inactive) |
| COC1(C)OC[C@@]2(C)OC(C)C1(C)C2O[Si](C(C)C)(C(C)C)C(C)C (some centres undefined) | 43.2 µM (inactive) |

* * *

tested on: Malme-3M; assay: NCI tumour cell line growth inhibition, 48 h
Active and inactive are the calls of the source. Cut-off read from the data, not from the text of the source: active = GI50 up to about 1.1 µM and inactive = higher.
# GI50 values compiled below
measuredEndpoint: GI50

| compound | reportedResult |
| --- | --- |
| CSc1nc(NC2OCC(OC(C)=O)C(OC(C)=O)C2OC(C)=O)c(/N=C\C=N\c2c(NC3OCC(OC(C)=O)C(OC(C)=O)C3OC(C)=O)nc(SC)n(C)c2=O)c(=O)n1C (centres undefined) | > 100 µM (inactive) |
| CCOC(=O)Cn1c(=O)c2nc(SC)sc2n(-c2ccccc2)c1=O | > 100 µM (inactive) |
| C=CCCOC(=O)CO[N+](=O)[O-] | > 100 µM (inactive) |
| CC(C)[Si]1(C(C)C)OCC2OC(n3cnc4c(N)ncnc43)C(N)C2O[Si](C(C)C)(C(C)C)O1 (centres undefined) | 17.8 µM (inactive) |
| COc1ccc(-n2c(C)nc3ccc(/N=C/c4ccccc4)cc3c2=O)cc1 | > 100 µM (inactive) |
| COc1nc(N)c(/N=C/C(OC(C)=O)C(OC(C)=O)C(COC(C)=O)OC(C)=O)c(=O)n1C (centres undefined) | > 100 µM (inactive) |
| Cc1ccc(S(=O)(=O)OC2C3OC(C)(C)OC3OC2C(c2cc(O)c3c(c2O)C(=O)c2ccccc2C3=O)c2cc(O)c3c(c2O)C(=O)c2ccccc2C3=O)cc1 (centres undefined) | > 10 µM (inactive) |
| C=C(Br)CN(C(C)=O)C1CCCCC1 | > 100 µM (inactive) |
| Clc1cc2ncn(C3CCCCO3)c2cc1Cl (centres undefined) | > 100 µM (inactive) |
| CN(C)c1ccc(/C=c2\sc3nnc(-c4cccnc4)n3c2=O)cc1 | > 100 µM (inactive) |
| CC1(C2CCC3(C)C(C2)C3Sc2ccccc2)OCCO1 (centres undefined) | 18.3 µM (inactive) |
| O=C1C=C(Br)C(=O)C(Br)=C1 | > 100 µM (inactive) |
| CCCCCCCC(=O)OC(CBr)COC(=O)C(C)(C)C (centres undefined) | > 100 µM (inactive) |
| CCOC(=O)c1cc(/C=C/C(C)=C/C(=O)OC)oc1-c1ccccc1 | > 100 µM (inactive) |

* * *

The following molecules are listed with their measured GI50 values.
test system: HCC 2998; assay: NCI tumour cell line growth inhibition, 48 h
Active and inactive are the calls of the source. Rule as the data show it: active = GI50 up to about 1.1 µM and inactive = higher.

| molecule | GI50 |
| --- | --- |
| COc1cc(/C=C2\N=C(c3ccccc3)N(c3nc4c(Cl)cc(Cl)cc4s3)C2=O)ccc1O | 19.8 µM (inactive) |
| N#C/C(=C\n1ccc(=O)[nH]c1=S)C(N)=O | > 100 µM (inactive) |
| COc1nc(N)c(/N=C/C(OC(C)=O)C(OC(C)=O)C(COC(C)=O)OC(C)=O)c(=O)n1C (centres undefined) | > 100 µM (inactive) |
| O=C(CSCC(=O)N/N=C\c1ccccc1F)N/N=C\c1ccccc1F | 38.5 µM (inactive) |
| O=C1C=C2CO[C@H]3OC[C@H](O)[C@@H]1[C@@H]23 | 29 µM (inactive) |
| COc1cc(OC)nc(Nc2c(C#N)c3nc4ccccc4n3c3ccccc23)n1 | > 100 µM (inactive) |
| O=C(O)C(Cc1cc(I)c(O)c(I)c1)C1CCCCC1 (centres undefined) | 27.2 µM (inactive) |
| CC(C)/C(Cl)=N\OC(=O)Nc1ccc(F)cc1 | 15.7 µM (inactive) |
| CC1=NN(c2ccccc2)C(=O)/C1=C/c1ccc(O)cc1 | > 100 µM (inactive) |
